test-system: Acetylcholinesterase (Electrophorus electricus, UniProt O42275)
Sequence (O42275 whole entry): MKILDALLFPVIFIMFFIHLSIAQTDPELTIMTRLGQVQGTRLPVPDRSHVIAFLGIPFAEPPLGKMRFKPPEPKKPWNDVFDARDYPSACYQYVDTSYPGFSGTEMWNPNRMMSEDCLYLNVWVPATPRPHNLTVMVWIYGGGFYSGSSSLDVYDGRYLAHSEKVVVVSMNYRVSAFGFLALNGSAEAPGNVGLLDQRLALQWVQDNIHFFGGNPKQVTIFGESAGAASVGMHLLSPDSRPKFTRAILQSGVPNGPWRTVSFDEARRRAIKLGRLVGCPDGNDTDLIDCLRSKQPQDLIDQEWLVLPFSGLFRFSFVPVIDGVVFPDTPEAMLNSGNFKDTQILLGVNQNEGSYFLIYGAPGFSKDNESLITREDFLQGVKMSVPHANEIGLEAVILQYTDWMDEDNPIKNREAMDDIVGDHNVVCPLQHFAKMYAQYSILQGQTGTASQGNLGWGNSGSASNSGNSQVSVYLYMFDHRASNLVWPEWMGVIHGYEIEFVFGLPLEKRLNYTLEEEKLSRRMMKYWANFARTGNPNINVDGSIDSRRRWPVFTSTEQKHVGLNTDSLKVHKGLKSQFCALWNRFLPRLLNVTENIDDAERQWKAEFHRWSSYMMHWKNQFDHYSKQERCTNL
pIC50: −log10 of the molar value.

[
  {
    "smiles-str": "O=c1ccc2ccc(OCCCCCn3cc(COn4nnc5ccccc54)nn3)cc2o1",
    "relation-qualifier": "≤",
    "pIC50": 5.00
  },
  {
    "smiles-str": "O=c1ccc2ccc(OCCn3cc(Cn4nnc5ccccc54)nn3)cc2o1",
    "relation-qualifier": "=",
    "pIC50": 5.68
  },
  {
    "smiles-str": "O=c1cc(OCCn2cc(Cn3nc4ccccc4n3)nn2)c2ccccc2o1",
    "relation-qualifier": "=",
    "pIC50": 5.72
  },
  {
    "smiles-str": "O=c1cc(OCCCCCCn2cc(COn3nnc4ccccc43)nn2)c2ccccc2o1",
    "relation-qualifier": "≤",
    "pIC50": 5.00
  },
  {
    "smiles-str": "O=c1cc(OCCCCCn2cc(Cn3nc4ccccc4n3)nn2)c2ccccc2o1",
    "relation-qualifier": "=",
    "pIC50": 5.32
  }
]

====

test-system: Amyloid-beta precursor protein (Homo sapiens) (UniProt P05067)
Sequence (P05067 whole entry): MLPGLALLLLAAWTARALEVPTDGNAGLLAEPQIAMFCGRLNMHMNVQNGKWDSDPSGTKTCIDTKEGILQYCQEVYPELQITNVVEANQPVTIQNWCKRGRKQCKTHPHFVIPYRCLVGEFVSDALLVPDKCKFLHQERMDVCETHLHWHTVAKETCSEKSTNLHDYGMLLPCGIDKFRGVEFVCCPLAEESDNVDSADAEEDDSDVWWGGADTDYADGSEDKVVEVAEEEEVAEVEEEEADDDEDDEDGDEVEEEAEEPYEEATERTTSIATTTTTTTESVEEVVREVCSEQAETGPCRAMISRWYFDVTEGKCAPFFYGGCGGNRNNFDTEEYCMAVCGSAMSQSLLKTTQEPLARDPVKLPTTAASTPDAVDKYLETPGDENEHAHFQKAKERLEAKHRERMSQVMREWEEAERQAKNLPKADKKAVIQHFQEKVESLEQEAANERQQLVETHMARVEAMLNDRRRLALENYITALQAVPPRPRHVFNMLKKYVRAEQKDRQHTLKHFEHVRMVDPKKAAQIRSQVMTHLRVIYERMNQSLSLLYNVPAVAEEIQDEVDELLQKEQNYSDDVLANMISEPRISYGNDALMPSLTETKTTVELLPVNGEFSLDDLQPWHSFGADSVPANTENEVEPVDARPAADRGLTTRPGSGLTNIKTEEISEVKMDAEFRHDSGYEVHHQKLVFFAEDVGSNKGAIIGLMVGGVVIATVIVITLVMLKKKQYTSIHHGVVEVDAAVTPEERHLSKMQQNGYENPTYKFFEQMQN
experiment-description: Inhibition of copper-induced amyloid beta (1 to 42) (unknown origin) aggregation at 50 uM by thioflavin T based fluorescence assay relative to control

[
  {
    "smiles-str": "O=c1cc(OCCCCn2cc(COn3nnc4ccccc43)nn2)c2ccccc2o1",
    "inhibition": "< 10%"
  },
  {
    "smiles-str": "O=c1cc(OCCCCCn2cc(COn3nnc4ccccc43)nn2)c2ccccc2o1",
    "inhibition": "< 10%"
  },
  {
    "smiles-str": "O=c1ccc2ccc(OCCn3cc(Cn4nnc5ccccc54)nn3)cc2o1",
    "inhibition": "29.4%"
  },
  {
    "smiles-str": "O=c1cc(OCCn2cc(Cn3nnc4ccccc43)nn2)c2ccccc2o1",
    "inhibition": "36.7%"
  },
  {
    "smiles-str": "O=c1ccc2ccc(OCCn3cc(Cn4nc5ccccc5n4)nn3)cc2o1",
    "inhibition": "< 10%"
  },
  {
    "smiles-str": "O=c1cc(OCCn2cc(Cn3nc4ccccc4n3)nn2)c2ccccc2o1",
    "inhibition": "< 10%"
  },
  {
    "smiles-str": "O=c1ccc2ccc(OCCCCCn3cc(Cn4nnc5ccccc54)nn3)cc2o1",
    "inhibition": "< 10%"
  },
  {
    "smiles-str": "O=c1cc(OCCCCCCn2cc(Cn3nnc4ccccc43)nn2)c2ccccc2o1",
    "inhibition": "< 10%"
  },
  {
    "smiles-str": "O=c1ccc2ccc(OCCCCCCn3cc(Cn4nnc5ccccc54)nn3)cc2o1",
    "inhibition": "< 10%"
  },
  {
    "smiles-str": "O=c1cc(OCCCCCn2cc(Cn3nnc4ccccc43)nn2)c2ccccc2o1",
    "inhibition": "11.4%"
  }
]

====

test-system: Acetylcholinesterase (Electrophorus electricus)
pKi: −log10 of the molar value.
measurement-label: pKi

[
  {
    "smiles-str": "O=c1cc(OCCCn2cc(Cn3nnc4ccccc43)nn2)c2ccccc2o1",
    "measurement-label": "pKi",
    "quantitative-readout": 10.38
  }
]

====

System: Acetylcholinesterase (Electrophorus electricus) | Read-out: pIC50
pIC50: −log10 of the molar value.

[
  {
    "smiles-str": "O=c1ccc2ccc(OCCCCCCn3cc(Cn4nc5ccccc5n4)nn3)cc2o1",
    "test-system": "Acetylcholinesterase (Electrophorus electricus)",
    "relation-qualifier": "≤",
    "pIC50": 5.00
  },
  {
    "smiles-str": "O=c1ccc2ccc(OCCCCCCn3cc(Cn4nnc5ccccc54)nn3)cc2o1",
    "test-system": "Acetylcholinesterase (Electrophorus electricus)",
    "relation-qualifier": "≤",
    "pIC50": 5.00
  },
  {
    "smiles-str": "O=c1cc(OCCCn2cc(Cn3nc4ccccc4n3)nn2)c2ccccc2o1",
    "test-system": "Acetylcholinesterase (Electrophorus electricus)",
    "relation-qualifier": "=",
    "pIC50": 5.78
  },
  {
    "smiles-str": "O=c1cc(OCCCCCn2cc(COn3nnc4ccccc43)nn2)c2ccccc2o1",
    "test-system": "Acetylcholinesterase (Electrophorus electricus)",
    "relation-qualifier": "≤",
    "pIC50": 5.00
  },
  {
    "smiles-str": "O=c1ccc2ccc(OCCCCCn3cc(Cn4nc5ccccc5n4)nn3)cc2o1",
    "test-system": "Acetylcholinesterase (Electrophorus electricus)",
    "relation-qualifier": "≤",
    "pIC50": 5.00
  },
  {
    "smiles-str": "O=c1ccc2ccc(OCCCCn3cc(Cn4nc5ccccc5n4)nn3)cc2o1",
    "test-system": "Acetylcholinesterase (Electrophorus electricus)",
    "relation-qualifier": "=",
    "pIC50": 5.26
  },
  {
    "smiles-str": "O=c1ccc2ccc(OCCCCn3cc(Cn4nnc5ccccc54)nn3)cc2o1",
    "test-system": "Acetylcholinesterase (Electrophorus electricus)",
    "relation-qualifier": "=",
    "pIC50": 5.36
  },
  {
    "smiles-str": "O=c1ccc2ccc(OCCCCCn3cc(Cn4nnc5ccccc54)nn3)cc2o1",
    "test-system": "Acetylcholinesterase (Electrophorus electricus)",
    "relation-qualifier": "=",
    "pIC50": 5.27
  },
  {
    "smiles-str": "O=c1ccc2ccc(OCCCCn3cc(COn4nnc5ccccc54)nn3)cc2o1",
    "test-system": "Acetylcholinesterase (Electrophorus electricus)",
    "relation-qualifier": "≤",
    "pIC50": 5.00
  },
  {
    "smiles-str": "O=c1ccc2ccc(OCCCCCCn3cc(COn4nnc5ccccc54)nn3)cc2o1",
    "test-system": "Acetylcholinesterase (Electrophorus electricus)",
    "relation-qualifier": "≤",
    "pIC50": 5.00
  }
]
